target: pooled human IgG (human IgG1, 2, 3 and 4)
measureName: Enzyme Activity Endpoint Assay: scIgG (ng/µL)
Give the quantity in ng/µL, number only.

Enzyme Activity Endpoint Assay: scIgG for PRT-391 (protein) MVTSVWTKGVTPPTNFTYGEDVLHAPYVANQGWYDITKTFNGKDDLLCGAATAGNMLHWWFDQNKEQIENYLKKHPEKQKINFNGEQMFDVKEAIDTKDSQLDSKLFEYFKEKAFPYLSTKHLGVFPDHVIDMFINGYRLSLTNHGPTPVKRGSKDKRGGIFDAVFTRGDQSKLLTNRHDFKEKTLKEISDLIKQELTEGKALGISHTYANVRINHVINLWGADFDAEGNLEAIYVTDSDSNASIGMKKYFVGVNSNGKVAISAKEIEEDNIGAQVLGLFTLSTGQDIWNQTN is 192

Enzyme Activity Endpoint Assay: scIgG for PRT-588 (protein) MRNQTTTYSEVTPSHITSVWTKGVTPPEQFIQGEDVFHAPYIANQGWYDITKTFNGKDDLLCGAATAGNMLHWWFDQNKEQIENYLKKHPEKQKIMFNNEEMFDLREAINTKDSQTDSALFSYFKDKAFPNLSARRLGVMPDHVLDMFINGYYLNVGNTDKTDVNRGTKDLRGGIFDAVFTRGDQSKLLTARHDLKNKTLKEISDLIKQELTEGKALALSHTYANVRINHVINLWGADFDAEGNLEAIYVTDSDSNASIGMKKYYVGVNSAGKVAISAKKIEGDNIGAQVLGLFTLSTGQDIWQQTNLEHHHHHH is 0
